Target: T1, human CD25 (NP_000408.1) (Met 1-Cys 213) C-terminally fused with 6-histidine tag (human, UniProt P01589 22-213)
T1 construct: range 1-213; Expressed in CHO-K1 cells; also called human CD25-his
T1 sequence: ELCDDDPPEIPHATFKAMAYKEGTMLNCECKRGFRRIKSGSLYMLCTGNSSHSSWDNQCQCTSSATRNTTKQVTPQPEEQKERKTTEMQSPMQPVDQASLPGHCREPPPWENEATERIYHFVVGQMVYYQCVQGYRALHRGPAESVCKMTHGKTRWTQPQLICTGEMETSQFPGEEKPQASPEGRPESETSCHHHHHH
Assay: ELISA, human CD25-his coated
# reported Relative activity (%) compared with 686; entries follow

binder	Relative activity (%) compared with 686
chimeric antibody 2047-3H8L2 (antibody, human IgG1, kappa, V domains shown, Chimeric, human IgG1/kappa; also called 2047-3ix) VH: QVQLKQSGAELVKPGASVKMSCKTSGYTFTDYVISWVKQRTGQGLEWIGEIYPGSGSTYYNEKFKGKATLTADISSNTAYMQLSSLTSEDSAVYFCASINFDYWGHGTTLTVSS VL: DIVMTQSPATLSVTPGDRVSLSCRASQSISDYLHWYQQKSHESPRLLIKYASQSISGIPSRFSGSGSGSDFTLSINSVEPEDVGVYYCQNGHSFPYTFGGGTKLEIKR	93.6
chimeric antibody 2046-111H2L1 (antibody, human IgG1, kappa, V domains shown, Chimeric, human IgG1/kappa) VH: DVQLQESGPGLVKPSQSLSLTCTVTGHSITSDYAWNWIRQFPGNKLEWMGYISYSGSTIYNPSLKSRISITRDTSKNQFFLQLNSVTTEDTATYYCARWLLQNYYAMDYWGQGTSVTVSS VL: DVVMTQTPLSLPVSLGDQASISCRSSQSLVHSNGNTYLHWYLRKPGQSPKLLIYKVSNRFSGVPDRFSGSGSGTDFTLKISRVEAEDLGVYFCSQSTHVPLTFGAGTKLELKR	105
chimeric antibody 2047-10H1L2 (antibody, human IgG1, kappa, V domains shown, Chimeric, human IgG1/kappa; also called 2047-10ix) VH: QVQLQQSGPELVRPGVSVKISCKGSGYTFTDYAMHWVKQSHAKSLEWIGVISTYNGNTNYNQKFKGKATMTVDKSSSTAYMELARLTSEDSAIYYCARSYGNYPFDYWGQGTTLTVSS VL: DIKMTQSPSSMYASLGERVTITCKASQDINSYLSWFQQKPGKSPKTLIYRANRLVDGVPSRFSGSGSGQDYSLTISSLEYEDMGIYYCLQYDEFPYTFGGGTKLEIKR	56

The reported numbers originate from patent EP4386000A1.
